- Test system: wheat germ agglutinin (Triticum aestivum), Alexa647-labelled
- assay.protocol: wheat germ agglutinin binders on compound microarrays, profiling panel, artefact control for SMM control-protein annotation, biochemical, small-molecule microarray, 635/667 nm fluorescence (AID 1140);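 further: score merges 667 nm feature emission with signal to noise over triplicate slides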
- experimental.setup: WGA-A647 binding, 635 nm fluorescence, higher = more signal
Items are presented alongside their recorded composite z-score.

>  <molecule>
CCN1C(=O)[C@H]2[C@H]3[C@H](O)[C@H](O)CC(=NNC(=O)OCc4ccccc4)[C@H]3CC[C@H]2C1=O

>  <obs.value>
0.136

$$$$
>  <molecule>
CO[C@@H](C1CCCCC1)[C@@H](C)[C@H](OCc1cccc(Br)c1)[C@@H](C)CO

>  <obs.value>
-0.181

$$$$
>  <molecule>
CC(=O)OC[C@H]1O[C@H](CC=NOC(C)CN2CCCc3nc(C)c(C)cc32)C=C[C@@H]1OC(C)=O (stereo partly specified)

>  <obs.value>
-0.0862

$$$$
>  <molecule>
CC(C)CON=C1C[C@@H](O)[C@@H](O)[C@@H]2[C@@H]3C(=O)N(Cc4ccc5c(c4)OCO5)C(=O)[C@@H]3CC[C@@H]12

>  <obs.value>
0.0667

$$$$
>  <molecule>
COC(=O)[C@@H]1CC[C@H](C)[C@@H](c2ccc(C)cc2)N1C(=O)c1ccc(C=NOC[C@@H](O)[C@H]2O[C@@H]3OC(C)(C)O[C@@H]3[C@H]2O)cc1

>  <obs.value>
0.506

$$$$

Note: attention shifts to another entry.
Q: What composite z-score appears in the records for this molecule with wheat germ agglutinin (Triticum aestivum), Alexa647-labelled? COC(=O)[C@H](C)NC(=O)CCC1CC(OC(=O)NCc2cccc3ccccc23)CC2(CCCC(COC(=O)NCCOc3ccccc3)O2)O1 (stereo partly specified)
Result: 0.502

* * *

Items are presented alongside their recorded z-score.
- assay.protocol: PSAC antagonists in infected red cells, primary screen, cell-based, P. falciparum Indochina, OD700, 2 h (AID 1155);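 further: lysis reports solute entry through the parasite surface anion channel PSAC; channel blockers reduce lysis of infected cells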
- experimental.setup: P. falciparum Indochina infected erythrocytes, osmotic lysis OD700; higher = more signal, called active from +8 up or from −8 down
Would you mind answering with just the numeric figure?

Study these solved cases before continuing.
>  <molecule>
C[C@@H]1CC[C@@H](C(=O)O)N[C@H]1c1cccc(N2CCOCC2)c1

>  <z-score>
0.18

$$$$
>  <molecule>
CC(C)=CCCC(C)=CCON=C1C[C@@H](O)[C@@H](O)[C@@H]2[C@@H]3C(=O)N(c4cccc(Oc5ccccc5)c4)C(=O)[C@@H]3CC[C@H]12

>  <z-score>
1.25

$$$$
>  <molecule>
O=C(NCCC[N+]1=CC=NC1c1ccccc1)N1CCCc2nc(-c3ccc(Br)cc3)ccc21 (stereo not given)

>  <z-score>
0.705

$$$$
>  <molecule>
CO[C@@H](C(C)C)[C@@H](C)C1OC(=O)CC1O (stereo not given in full)

>  <z-score>
0.0974

$$$$

Note: attention shifts to another entry.
Q: Entry "CC(C)CON=C1C[C@@H](O)[C@@H](O)[C@@H]2[C@@H]3C(=O)N([C@@H](C)c4ccccc4)C(=O)[C@@H]3CC[C@@H]12" : reported z-score = ?
Result: 0.63

* * *

- assay.protocol: COS7 lysate on small-molecule microarray, probe aHis, 635 nm (AID 1123);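 further: z-score combines 667nm fluorescence intensity with signal-to-noise per printed compound spot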
- experimental.setup: COS7 cell lysate, fluorescence, higher = more signal
readout.kind: composite z-score
Would you mind answering with just the numeric figure?

Study these solved cases before continuing.
>  <compound>
CC(C)CON=C1C[C@@H](O)[C@@H](O)[C@@H]2[C@@H]3C(=O)N(c4ccc(F)cc4F)C(=O)[C@@H]3CC[C@@H]12

>  <obs.value>
-0.146

$$$$
>  <compound>
C#CCCCON=C1C[C@@H](O)[C@@H](O)[C@@H]2[C@@H]3C(=O)N(C4CCCCC4)C(=O)[C@@H]3CC[C@@H]12

>  <obs.value>
0.65

$$$$
>  <compound>
COC(=O)[C@H](C)NC(=O)CCC1CC(OC(=O)NCCc2ccc(F)cc2)CC2(CCCC(COC(=O)NCC3CCCCC3)O2)O1 (stereo partly specified)

>  <obs.value>
1.52

$$$$
>  <compound>
COC(=O)C1=C(C)N(Cc2ccccc2)C2=C3C(=O)OCC[C@@H]3[C@@](O)(C(=O)OC)C(=O)N2[C@@H]1c1ccccc1

>  <obs.value>
0.132

$$$$

Q: Entry "O=C(NN=C1C[C@@H](O)[C@@H](O)[C@@H]2[C@@H]3C(=O)N(Cc4ccccc4)C(=O)[C@@H]3CC[C@H]12)OCc1ccccc1" : reported composite z-score = ?
Result: -0.771

Q: Entry "CCN1C(=O)[C@H]2[C@H]3[C@H](O)[C@H](O)CC(=NO[C@H](C)c4cn([C@H](CO)Cc5ccccc5)nn4)[C@@H]3CC[C@H]2C1=O" : reported composite z-score = ?
Result: 0.785

Q: Entry COC(=O)[C@H](C)NC(=O)CCC1CC(OC(=O)NCc2cccc3ccccc23)CC2(CCCC(COC(=O)NCCCN3CCCC3=O)O2)O1 (stereo partly specified) : reported composite z-score = ?
Result: 0.519

Q: Entry "O=C1C[C@H](c2ccccc2)[C@H](c2ccc(Br)cc2)O1" : reported composite z-score = ?
Result: -0.652

Q: Entry "CCCC[C@H]1CN2[C@@H](CC[C@@H](C)[C@@H]2c2ccc(Br)cc2)C(=O)O1" : reported composite z-score = ?
Result: 0.615

Q: Entry CCOC(=O)[C@H](Cc1ccccc1)NC(=O)CCC1CC(OC(=O)NCc2ccc3c(c2)OCO3)CC2(CCCC(COC(=O)NCCOc3ccccc3)O2)O1 (stereo partly specified) : reported composite z-score = ?
Result: 1.52

Q: Entry "Cc1ccc(S(=O)(=O)N[C@@H]2COC(=O)CC=C[C@@H](C)[C@H](NS(=O)(=O)c3ccc(C)cc3)COC(=O)[C@H](C)NC(=O)CC=C[C@H]2C)cc1" : reported composite z-score = ?
Result: -1.18
